B1: Flag-CNK^2–549 [Drosophila] / V5-KSR [Drosophila] (parent)
chain 1: MSSNNNAPASAPDTGSTNANDPISGSLSVDSNLVIIQDMIDLSANHLEGLRTQCAISSTLTQQEIRCLESKLVRYFSELLLAKMRLNERIPANGLVPHTTGNELRQWLRVVGLSQGTLTACLARLTTLEQSLRLSDEEIRQLLADSPSQREEEELRRLTRAMQNLRKCMESLESGTAASNNDPEQWHWDSWDRPTHIHRGSVGNIGLGNNSTASPRTHHRQHGVKGKNSALANSTNFKSGRQSPSATEELNSTQGSQLTLTLTPSPPNSPFTPSSGLSSSLNGTPQRSRGTPPPARKHQTLLSQSHVQVDGEQLARNRLPTDPSPDSHSSTSSDIFVDPNTNASSGGSSSNVLMVPCSPGVGHVGMGHAIKHRFTKALGFMATCTLCQKQVFHRWMKCTDCKYICHKSCAPHVPPSCGLPREYVDEFRHIKEQGGYASLPHVHGAAKGSPLVKKSTLGKPLHQQHGDSSSPSSSCTSSTPSSPALFQQRERELDQAGSSSSANLLPTPSLGKHQPSQFNFPNVTVTSSGGSGGVSLISNEPVPEQFPTAPATANGGLDSLVSSSNGHMSSLIGSQTSNASTAATLTGSLVNSTTTTSTCSFFPRKLSTAGVDKRTPFTSEYTDTHKSNDSDKTVSLSGSASTDSDRTPVRVDSTEDGDSGQWRQNSISLKEWDIPYGDLLLLERIGQGRFGTVHRALWHGDVAVKLLNEDYLQDEHMLETFRSEVANFKNTRHENLVLFMGACMNPPYLAIVTSLCKGNTLYTYIHQRREKFAMNRTLLIAQQIAQGMGYLHAREIIHKDLRTKNIFIENGKVIITDFGLFSSTKLLYCDMGLGVPHNWLCYLAPELIRALQPEKPRGECLEFTPYSDVYSFGTVWYELICGEFTFKDQPAESIIWQVGRGMKQSLANLQSGRDVKDLLMLCWTYEKEHRPQFARLLSLLEHLPKKRLARSPSHPVNLSRSAESVF
chain 2: AYINIAEWTPDQVTDWIKGLDESMKGYLYEFSKQEIGGRALLNIRPYELENLGMLRIGHQEIVLEAVENLRNFHYHLKNDNLQFMALHVATAAKNLHRELARNHAESTKIDTRILHDITRTIATLKPLVGSLERTPFRKQEMYREYCGNVLKCGLELATIAHRDRFALQPVPAIRQSAERLENLANFVIQDISDPMVLQPASLNLVTLKKRESELGFNIESSYNGIHRVTDIKYNSPAHNSGKIEDGDEIVQINYQTVVGWQHRTVLEHLREALPDVVLTVKKRPKHTKMFGQIYMQPYRLPSKKRNMAARWAAQMPSPRAAFLTLDTEQLATGGTGSAVPDPSKSLSSEKREVLTKANPVSSASDSDSSCSDIPTPTDPKLAAREIRLYYPKPRALLQRRNTICGCEYLSLKNSDLVVPSWHERKPGIGSPTNCDPGSPSIRDKSISFGYGLEMAARPTTCIGIAGDTSTDKARRMFHEARKLKQLTEDSQREFLVDRYKPGVSKVVRFDAKEDYVMKNEKFICNVENTILETFEPIPFADEGDEDA

Variants of: B1
Test: GST pull-down, immunoblot quantification
Details: with V5-KSR [Drosophila]; S2 cells; Flag-CNK2–549, V5-KSR, Myc-MEK, GST-HYP co-expressed; captured via GST-HYP; anti-V5 (KSR) blot; parent: 1
// boundary case: ratio to parent equal to 0.8 maps to condition not met; strictly smaller maps to condition met

{"Mutation Notation": "chain 2 N95E", "Assigned Label": "condition not met"}
{"Mutation Notation": "chain 2 R45F", "Assigned Label": "condition not met"}
{"Mutation Notation": "chain 2 Q83E", "Assigned Label": "condition met"}
{"Mutation Notation": "chain 2 N81E", "Assigned Label": "condition met"}
{"Mutation Notation": "chain 2 N81W", "Assigned Label": "condition met"}
{"Mutation Notation": "chain 2 Y75R", "Assigned Label": "condition met"}
